List of cell viability values.
test system: OCI-AML2; assay: cell viability relative to vehicle control; higher = less cytotoxic; conditions: 10 µM; SRSF2 genotype: P95H/wt;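 further: after 48 h exposure read by CellTiter-Glo luminescence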
Where a name gives a salt, the structure may show the parent alone.
Express your answer in %, writing the number without its unit.

MOLECULE: CC(=O)Oc1ccccc1C(=O)Nc1ncc([N+](=O)[O-])s1 [Nitazoxanide (Alinia, Annita)]
cell viability (%): 87.5
--
MOLECULE: CN(C)CCSSCCNC(=O)C1CCN(C(=O)CSc2ccc(Cl)cc2)CC1
cell viability (%): 89.8
--
MOLECULE: CC[C@@](C)(Nc1ccnc(-c2c[nH]c3ncccc23)n1)C(=O)NCC(F)(F)F
cell viability (%): 85.1
--
MOLECULE: C#CC1(O)CC[C@H]2[C@@H]3CCC4=CC(=O)CC[C@@H]4[C@H]3CC[C@@]21CC (stereo partly drawn)
cell viability (%): 122
--
MOLECULE: COc1cc2ncnc(Nc3ccc(O)c(Br)c3)c2cc1OC
cell viability (%): 61.8
--
MOLECULE: COC(=O)c1cc(OC)c2c(c1-c1c(C(=O)OC)cc(OC)c3c1OCO3)OCO2 [Bifendate]
cell viability (%): 106
--
MOLECULE: CCCCCCCCc1ccc(CCC(N)(CO)CO)cc1 [Fingolimod (FTY720) HCl]
cell viability (%): 0.36
--
MOLECULE: C[C@]12C=CC(=O)C=C1CC[C@@H]1[C@@H]2C(=O)C[C@@]2(C)[C@H]1CC[C@]2(O)C(=O)CO
cell viability (%): 106
--
MOLECULE: C[C@H](N[C@@H](CCc1ccccc1)C(=O)O)C(=O)N1CCC[C@H]1C(=O)O [Enalaprilat dihydrate]
cell viability (%): 99.4
--
MOLECULE: N[C@@H](CS)C(=O)O [L-Cysteine HCl]
cell viability (%): 89.1

Next up:
# return recorded cell viability for input Clc1ccc(C(c2ccccc2Cl)C(Cl)Cl)cc1 (stereo not drawn)
93.7

Reference for the values: the supplement of paper PMC10981050
